Exercise: for every item that follows, state its recorded MHC-I surface expression on infected MDBK cells (FACS).
target: bovine TAP1 (bovine); assay: cell-based or functional assay
// return numeric value only (unit: %, not printed)

The measured MHC-I surface expression on infected MDBK cells (FACS) associated with BHV-1 UL49.5 CT-null (other) DPLLDAMRREGAMDFWSAGCYARGVPLSEPPQALVVFYVALTAVMVAVALYAYGLCF reads 49.6

The measured MHC-I surface expression on infected MDBK cells (FACS) associated with BHV-1 wt UL49.5 (glycoprotein N) (other) DPLLDAMRREGAMDFWSAGCYARGVPLSEPPQALVVFYVALTAVMVAVALYAYGLCFRLMGASGPNKKESRGRG reads 36.2

The measured MHC-I surface expression on infected MDBK cells (FACS) associated with BHV-1 UL49.5 30AAA32 CT-null (other) DPLLDAMAAAGAMDFWSAGCYARGVPLSEPPQALVVFYVALTAVMVAVALYAYGLCF reads 89.1

The measured MHC-I surface expression on infected MDBK cells (FACS) associated with BHV-1 UL49.5Δ30-32 CT-null (other) DPLLDAMGAMDFWSAGCYARGVPLSEPPQALVVFYVALTAVMVAVALYAYGLCF reads 88.6

The measured MHC-I surface expression on infected MDBK cells (FACS) associated with BHV-1 UL49.5Δ30-32 (other) DPLLDAMGAMDFWSAGCYARGVPLSEPPQALVVFYVALTAVMVAVALYAYGLCFRLMGASGPNKKESRGRG reads 74.3

The measured MHC-I surface expression on infected MDBK cells (FACS) associated with BHV-1 UL49.5 30AAA32 (other) DPLLDAMAAAGAMDFWSAGCYARGVPLSEPPQALVVFYVALTAVMVAVALYAYGLCFRLMGASGPNKKESRGRG reads 75
